Cited source: the supplement of paper PMC10065799

# Target Under Test: FGFR1 (UniProt P11362)
# Sequence (P11362 whole entry, looked up): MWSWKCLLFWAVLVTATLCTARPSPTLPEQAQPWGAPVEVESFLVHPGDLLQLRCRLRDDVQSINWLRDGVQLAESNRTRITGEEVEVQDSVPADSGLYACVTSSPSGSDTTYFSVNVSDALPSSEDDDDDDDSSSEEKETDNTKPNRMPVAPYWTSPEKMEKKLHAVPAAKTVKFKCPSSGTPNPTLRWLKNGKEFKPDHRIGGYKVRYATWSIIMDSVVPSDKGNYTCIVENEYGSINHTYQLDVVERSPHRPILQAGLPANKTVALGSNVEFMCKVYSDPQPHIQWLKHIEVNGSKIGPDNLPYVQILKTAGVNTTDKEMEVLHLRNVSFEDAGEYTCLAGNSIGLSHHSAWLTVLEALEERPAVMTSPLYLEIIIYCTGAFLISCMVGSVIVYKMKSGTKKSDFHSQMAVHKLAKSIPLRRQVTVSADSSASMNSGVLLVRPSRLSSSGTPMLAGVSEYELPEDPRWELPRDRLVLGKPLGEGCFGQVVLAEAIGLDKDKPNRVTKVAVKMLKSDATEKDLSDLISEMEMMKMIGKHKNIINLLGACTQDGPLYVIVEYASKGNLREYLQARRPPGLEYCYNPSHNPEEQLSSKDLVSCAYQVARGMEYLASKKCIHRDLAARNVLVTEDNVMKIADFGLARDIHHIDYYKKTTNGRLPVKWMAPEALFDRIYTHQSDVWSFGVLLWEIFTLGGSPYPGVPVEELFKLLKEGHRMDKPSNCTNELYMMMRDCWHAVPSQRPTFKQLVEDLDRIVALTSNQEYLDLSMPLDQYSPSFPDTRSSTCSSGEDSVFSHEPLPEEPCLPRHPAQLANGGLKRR
# Test Description: phosphorylation enrichment, bacterial display (enrichment ratio); higher = better substrate or ligand; peptides without Tyr show the background;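 further: 11-residue human phosphosite peptides and single-mutation variants displayed on the E. coli surface, counted by deep sequencing, each peptide's frequency after selection divided by its frequency in the unselected input library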;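 further: frequency after pTyr selection over input frequency; kinase dosed for 20-30% of maximal phosphorylation in three min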
Recorded phosphorylation enrichment by entry
Measurement Name: phosphorylation enrichment

- Residue Codes: "ASFGPNTRVQS [FOXL2_Y258_Y258N_YF]"
  Target Under Test: "FGFR1 (UniProt P11362)"
  Recorded Measurement: 0.479
- Residue Codes: "ATVRPYRPFII [LRP5_Y1528_A1525V_YF]"
  Target Under Test: "FGFR1 (UniProt P11362)"
  Recorded Measurement: 0.418
- Residue Codes: "PKEEPYKMQEK [SLC5A3_Y565_Q566K]"
  Target Under Test: "FGFR1 (UniProt P11362)"
  Recorded Measurement: 0.565
- Residue Codes: "GGSSPYSRRLP [CDK13_Y351]"
  Target Under Test: "FGFR1 (UniProt P11362)"
  Recorded Measurement: 0.393
- Residue Codes: "MEIHAYRKLLE [LMNA_Y376]"
  Target Under Test: "FGFR1 (UniProt P11362)"
  Recorded Measurement: 0.443
- Residue Codes: "PATFTYDEFKK [COL8A2_Y648_YF]"
  Target Under Test: "FGFR1 (UniProt P11362)"
  Recorded Measurement: 0.77
- Residue Codes: "WANPEYTGGFK"
  Target Under Test: "FGFR1 (UniProt P11362)"
  Recorded Measurement: 0.43
- Residue Codes: "IMITDYLLLFR [INSR_Y87]"
  Target Under Test: "FGFR1 (UniProt P11362)"
  Recorded Measurement: 1.36
- Residue Codes: "YKEQGYHRLPP [RIN1_Y681]"
  Target Under Test: "FGFR1 (UniProt P11362)"
  Recorded Measurement: 0.622
- Residue Codes: "FQKDVYDIPPS [NEDD9_Y177_YF]"
  Target Under Test: "FGFR1 (UniProt P11362)"
  Recorded Measurement: 0.384
- Residue Codes: "RLGVTYEQALA [MAP2_Y996_G991R]"
  Target Under Test: "FGFR1 (UniProt P11362)"
  Recorded Measurement: 0.721
- Residue Codes: "GEDEPYAEPYA [APBA1_Y183_S184A]"
  Target Under Test: "FGFR1 (UniProt P11362)"
  Recorded Measurement: 0.608
- Residue Codes: "LENSTYQFICV [CRB1_Y760_R764C_YF]"
  Target Under Test: "FGFR1 (UniProt P11362)"
  Recorded Measurement: 3.43
- Residue Codes: "QTPVLYTMLDH [MPZ_Y220_A221T]"
  Target Under Test: "FGFR1 (UniProt P11362)"
  Recorded Measurement: 2.85
- Residue Codes: "GFIISYREEEQ"
  Target Under Test: "FGFR1 (UniProt P11362)"
  Recorded Measurement: 0.478
- Residue Codes: "KILGTYYETGS [PAX2_Y72_R71T]"
  Target Under Test: "FGFR1 (UniProt P11362)"
  Recorded Measurement: 1.85
- Residue Codes: "GLVFLYVEKNQ [PRELP_Y156_M157V]"
  Target Under Test: "FGFR1 (UniProt P11362)"
  Recorded Measurement: 0.44
- Residue Codes: "QERPEYWDQET [HLA-A_Y83_G80R]"
  Target Under Test: "FGFR1 (UniProt P11362)"
  Recorded Measurement: 0.727
- Residue Codes: "GKANRYFSPNF [PTEN_Y336_D331G]"
  Target Under Test: "FGFR1 (UniProt P11362)"
  Recorded Measurement: 0.455
- Residue Codes: "TIEDSYRKQVV [KRAS_Y40]"
  Target Under Test: "FGFR1 (UniProt P11362)"
  Recorded Measurement: 0.398
- Residue Codes: "GADDSYYTARS [ZAP70_Y492]"
  Target Under Test: "FGFR1 (UniProt P11362)"
  Recorded Measurement: 0.551
- Residue Codes: "LTTPTFGDLNH [TUBB_Y222_Y222F]"
  Target Under Test: "FGFR1 (UniProt P11362)"
  Recorded Measurement: 0.554
- Residue Codes: "KDDEKYLDVSR [MTM1_Y260_I264S]"
  Target Under Test: "FGFR1 (UniProt P11362)"
  Recorded Measurement: 0.473
- Residue Codes: "FRVDCYKNFVA [FHL1_Y213_C209R_YF]"
  Target Under Test: "FGFR1 (UniProt P11362)"
  Recorded Measurement: 0.542
- Residue Codes: "QEIATYPRLLE [KRT14_Y415_R416P]"
  Target Under Test: "FGFR1 (UniProt P11362)"
  Recorded Measurement: 0.77
- Residue Codes: "CDKEYYSVHNK [MET_Y1235_Y1230C]"
  Target Under Test: "FGFR1 (UniProt P11362)"
  Recorded Measurement: 2.49
- Residue Codes: "ADRARYSAFGG [RBM4_Y361]"
  Target Under Test: "FGFR1 (UniProt P11362)"
  Recorded Measurement: 0.35
- Residue Codes: "FQCKHYACIRQ [TIMP3_Y182_S179C_YF]"
  Target Under Test: "FGFR1 (UniProt P11362)"
  Recorded Measurement: 0.341
- Residue Codes: "LYRYGYANTSE [SI_Y1233_C1229Y]"
  Target Under Test: "FGFR1 (UniProt P11362)"
  Recorded Measurement: 0.46
- Residue Codes: "PFVFFYSFLLK [PTEN_Y178_R173P_YF]"
  Target Under Test: "FGFR1 (UniProt P11362)"
  Recorded Measurement: 0.751
- Residue Codes: "YLQEIYNSNNQ [FGG_Y140]"
  Target Under Test: "FGFR1 (UniProt P11362)"
  Recorded Measurement: 0.436
- Residue Codes: "HNVPICEGYAL [ACTC1_Y168_Y168C]"
  Target Under Test: "FGFR1 (UniProt P11362)"
  Recorded Measurement: 0.732
- Residue Codes: "EQDRAYLEGTC [HLA-C_Y183_L180D]"
  Target Under Test: "FGFR1 (UniProt P11362)"
  Recorded Measurement: 0.521
- Residue Codes: "KVALLYKPYFY [POLE_Y100_P99L]"
  Target Under Test: "FGFR1 (UniProt P11362)"
  Recorded Measurement: 0.483
- Residue Codes: "RISPEYKQNEI [GJB1_Y243_L239I]"
  Target Under Test: "FGFR1 (UniProt P11362)"
  Recorded Measurement: 0.866
- Residue Codes: "NMSRIYSTTKV [ACE_Y151_A154T]"
  Target Under Test: "FGFR1 (UniProt P11362)"
  Recorded Measurement: 0.341
- Residue Codes: "EAIAKYDFKAT [GRB2_Y7]"
  Target Under Test: "FGFR1 (UniProt P11362)"
  Recorded Measurement: 0.587
- Residue Codes: "FLTQHHDAKPQ [ANG_Y38_Y38H]"
  Target Under Test: "FGFR1 (UniProt P11362)"
  Recorded Measurement: 0.447
- Residue Codes: "ANYTEYVATRW [CDKL5_Y171]"
  Target Under Test: "FGFR1 (UniProt P11362)"
  Recorded Measurement: 2.97
- Residue Codes: "DDIPLYLKGGV [COX7A2_Y44_E40D]"
  Target Under Test: "FGFR1 (UniProt P11362)"
  Recorded Measurement: 0.496
- Residue Codes: "SSSGAYGGGYG [KRT19_Y61]"
  Target Under Test: "FGFR1 (UniProt P11362)"
  Recorded Measurement: 0.353
- Residue Codes: "SSQHRYSTPHT [RAF1_Y232_A237T]"
  Target Under Test: "FGFR1 (UniProt P11362)"
  Recorded Measurement: 0.352
- Residue Codes: "VHSGTYQVTVC [MYBPC3_Y1043_R1048C]"
  Target Under Test: "FGFR1 (UniProt P11362)"
  Recorded Measurement: 0.51
- Residue Codes: "EERNTYVNTTL [TEK_Y1102_K1100N]"
  Target Under Test: "FGFR1 (UniProt P11362)"
  Recorded Measurement: 0.515
- Residue Codes: "LSSETYVKSYT [F5_Y2149_M2148T]"
  Target Under Test: "FGFR1 (UniProt P11362)"
  Recorded Measurement: 0.606
- Residue Codes: "QYNPEYVQQAS [LRRC7_Y1058_H1054Y]"
  Target Under Test: "FGFR1 (UniProt P11362)"
  Recorded Measurement: 0.854
- Residue Codes: "STSKTYVISQT [RBBP6_Y87_R91Q]"
  Target Under Test: "FGFR1 (UniProt P11362)"
  Recorded Measurement: 0.431
- Residue Codes: "EREFKYDAHNF [OAT_Y50_G51D_YF]"
  Target Under Test: "FGFR1 (UniProt P11362)"
  Recorded Measurement: 0.643
- Residue Codes: "CNPRRYPVLMS [OR2T1_Y182_L180R]"
  Target Under Test: "FGFR1 (UniProt P11362)"
  Recorded Measurement: 0.384
- Residue Codes: "TRSYKYLLLSM [NF1_Y491]"
  Target Under Test: "FGFR1 (UniProt P11362)"
  Recorded Measurement: 0.433
- Residue Codes: "SKHHLYSDLQT [PTCHD1_Y84_R82H]"
  Target Under Test: "FGFR1 (UniProt P11362)"
  Recorded Measurement: 0.55
- Residue Codes: "GLALRCLSDHS [VWF_Y1584_Y1584C]"
  Target Under Test: "FGFR1 (UniProt P11362)"
  Recorded Measurement: 0.551
- Residue Codes: "GSQERDFELVE [TSC2_Y407_Y407D]"
  Target Under Test: "FGFR1 (UniProt P11362)"
  Recorded Measurement: 0.489
- Residue Codes: "SDPIIYTLENI [ADGRE1_Y534]"
  Target Under Test: "FGFR1 (UniProt P11362)"
  Recorded Measurement: 0.491
- Residue Codes: "PVQAAYQKVVD [HBB_Y131_A136D]"
  Target Under Test: "FGFR1 (UniProt P11362)"
  Recorded Measurement: 0.655
- Residue Codes: "RLLVVYTWTQR [HBB_Y36_P37T]"
  Target Under Test: "FGFR1 (UniProt P11362)"
  Recorded Measurement: 0.661
- Residue Codes: "PEEKVYLSRGD [CRACR2A_Y141_H136P]"
  Target Under Test: "FGFR1 (UniProt P11362)"
  Recorded Measurement: 0.706
- Residue Codes: "EADRKYEEVAG [TPM3_Y163_R168G]"
  Target Under Test: "FGFR1 (UniProt P11362)"
  Recorded Measurement: 0.6
